For each entry below, report its IC50 value.
SUBJECT_OF_TEST: Phosphoglycerate kinase (Trypanosoma brucei)
ASSAY_METHOD_TEXT: evaluated for the inhibition of Trypanosoma brucei Phosphoglycerate kinase (PGK)
Answer with a number only, understood to be in µM.

IN: Quick one: IC50 of OC[C@H]1OC(n2cnc3c(NCCc4ccccc4)nc(NCCc4ccccc4)nc32)[C@H](O)[C@@H]1O (stereo partly drawn) ?
OUT: 30

IN: Another compound to check: CC(CNc1nc(N)nc2c1ncn2C1O[C@H](CO)[C@@H](O)[C@H]1O)c1ccccc1 (stereo partly drawn)
OUT: 2900

IN: How about this compound: Nc1nc(NCCc2ccc(Cl)cc2)c2ncn(C3O[C@H](CO)[C@@H](O)[C@H]3O)c2n1 (stereo partly drawn)
OUT: 1400

IN: Check COc1ccccc1CCNc1nc(N)nc2c1ncn2C1O[C@H](CO)[C@@H](O)[C@H]1O (stereo partly drawn) too.
OUT: 1800

IN: Next: Nc1nc(NCc2ccco2)nc2c1ncn2C1O[C@H](CO)[C@@H](O)[C@H]1O (stereo partly drawn)
OUT: 1200

IN: Okay, and Nc1nc(NCCCNc2nc(N)nc3c2ncn3C2O[C@H](CO)[C@@H](O)[C@H]2O)c2ncn(C3O[C@@H](CO)[C@H](O)[C@@H]3O)c2n1 (stereo partly drawn) ?
OUT: 50

IN: Then what about the compound Nc1nc(NCc2cccc3ccccc23)c2ncn(C3O[C@H](CO)[C@@H](O)[C@H]3O)c2n1 (stereo partly drawn) ?
OUT: 1900

IN: Subsequent entry: Nc1nc(NCCCCCNc2nc(N)nc3c2ncn3C2O[C@H](CO)[C@@H](O)[C@H]2O)c2ncn(C3O[C@@H](CO)[C@H](O)[C@@H]3O)c2n1 (stereo partly drawn)
OUT: 1000

---

SUBJECT_OF_TEST: Phosphoglycerate kinase (Trypanosoma brucei)
ASSAY_METHOD_TEXT: evaluated for the inhibition of Trypanosoma brucei Phosphoglycerate kinase (PGK)
VALUE_KIND: IC50
Give the figure together with its unit, number first.

IN: I am curious: what IC50 value has been reported for Nc1nc(NCC2CCCO2)nc2c1ncn2C1O[C@H](CO)[C@@H](O)[C@H]1O (stereo partly drawn) ?
OUT: 800 µM

IN: Can you handle NCCCNc1nc(N)nc2c1ncn2C1O[C@H](CO)[C@@H](O)[C@H]1O (stereo partly drawn) next?
OUT: 4000 µM

IN: Same question, Nc1nc(NCCCc2ccccc2)c2ncn(C3O[C@H](CO)[C@@H](O)[C@H]3O)c2n1 (stereo partly drawn) this time
OUT: 4000 µM

IN: Repeat for the following compound: Cc1ccccc1CNc1nc(N)c2ncn(C3O[C@H](CO)[C@@H](O)[C@H]3O)c2n1 (stereo partly drawn)
OUT: 1500 µM

IN: Param item: Nc1nc(NC2CCCCCC2)c2ncn(C3O[C@H](CO)[C@@H](O)[C@H]3O)c2n1 (stereo partly drawn)
OUT: 2500 µM

IN: CCCNc1nc(N)nc2c1ncn2C1O[C@H](CO)[C@@H](O)[C@H]1O (stereo partly drawn) , same question.
OUT: 3000 µM

IN: Note, next up: Nc1nc(NCCc2ccc(O)cc2)c2ncn(C3O[C@H](CO)[C@@H](O)[C@H]3O)c2n1 (stereo partly drawn)
OUT: 130 µM

IN: Another compound to check: Nc1ccc(CCNc2nc(N)c3ncn(C4O[C@H](CO)[C@@H](O)[C@H]4O)c3n2)cc1 (stereo partly drawn)
OUT: 500 µM

---

Give measured IC50 for each item. Keep answers brief.
SUBJECT_OF_TEST: Phosphoglycerate kinase (Trypanosoma brucei)
ASSAY_METHOD_TEXT: evaluated for the inhibition of Trypanosoma brucei Phosphoglycerate kinase (PGK)
API: value field is a number in µM; no unit string.

IN: Value lookup for IC50; key = Nc1nc(NCCc2ccc(Cl)cc2Cl)nc2c1ncn2C1O[C@H](CO)[C@@H](O)[C@H]1O (some centres undefined)
OUT: 600

IN: // next record Nc1nc(NCc2cccc(Cl)c2)nc2c1ncn2C1O[C@H](CO)[C@@H](O)[C@H]1O (some centres undefined)
OUT: 800

IN: Can you check Nc1nc(NCCCc2ccccc2)nc2c1ncn2C1O[C@H](CO)[C@@H](O)[C@H]1O (some centres undefined) next?
OUT: 1800

IN: What about Nc1nc(NCCc2cccc(Cl)c2)c2ncn(C3O[C@H](CO)[C@@H](O)[C@H]3O)c2n1 (some centres undefined) ?
OUT: 1200

IN: Another molecule to look at: Cc1ccc(CNc2nc(N)c3ncn(C4O[C@H](CO)[C@@H](O)[C@H]4O)c3n2)cc1 (some centres undefined)
OUT: 1500

IN: Try COc1ccc(CCNc2nc(N)nc3c2ncn3C2O[C@H](CO)[C@@H](O)[C@H]2O)cc1O (some centres undefined) next.
OUT: 850

IN: Can you check Nc1nc(NCc2ccccc2)nc2c1ncn2C1O[C@H](CO)[C@@H](O)[C@H]1O (some centres undefined) next?
OUT: 3500

IN: Another molecule to look at: Nc1nc(NCCc2ccc(O)cc2)nc2c1ncn2C1O[C@H](CO)[C@@H](O)[C@H]1O (some centres undefined)
OUT: 500

IN: Note, next up: Nc1nc(NCC2CCCCC2)c2ncn(C3O[C@H](CO)[C@@H](O)[C@H]3O)c2n1 (some centres undefined)
OUT: 2500

---

Please respond with reported IC50 for every item in the list.
SUBJECT_OF_TEST: Phosphoglycerate kinase (Trypanosoma brucei)
ASSAY_METHOD_TEXT: evaluated for the inhibition of Trypanosoma brucei Phosphoglycerate kinase (PGK)
Field: numeric (µM). Do not append units.

IN: Value lookup for IC50; key = COc1ccc(CCNc2nc(N)nc3c2ncn3C2O[C@H](CO)[C@@H](O)[C@H]2O)cc1 (stereo partly specified)
OUT: 1500

IN: Please do the same for Nc1nc(NCCc2ccc(O)c(O)c2)c2ncn(C3O[C@H](CO)[C@@H](O)[C@H]3O)c2n1 (stereo partly specified) as well.
OUT: 250

IN: And then Nc1nc(NC2CCCC2)c2ncn(C3O[C@H](CO)[C@@H](O)[C@H]3O)c2n1 (stereo partly specified) , what is it?
OUT: 1500

IN: Cc1cccc(CNc2nc(N)c3ncn(C4O[C@H](CO)[C@@H](O)[C@H]4O)c3n2)c1 (stereo partly specified) , same question.
OUT: 1500

IN: Also, OC[C@H]1OC(n2cnc3c(NCCc4ccccc4)nc(NCCc4ccc(O)cc4)nc32)[C@H](O)[C@@H]1O (stereo partly specified) please.
OUT: 100

IN: Also Cc1cccc(CNc2nc(N)nc3c2ncn3C2O[C@H](CO)[C@@H](O)[C@H]2O)c1 (stereo partly specified) , if possible.
OUT: 400

IN: Try COc1cccc(CCNc2nc(N)nc3c2ncn3C2O[C@H](CO)[C@@H](O)[C@H]2O)c1 (stereo partly specified) next.
OUT: 1900

IN: Check Nc1nc(NCCCCNc2nc(N)nc3c2ncn3C2O[C@H](CO)[C@@H](O)[C@H]2O)c2ncn(C3O[C@@H](CO)[C@H](O)[C@@H]3O)c2n1 (stereo partly specified) too.
OUT: 750

IN: Now consider Nc1nc(NCc2ccco2)c2ncn(C3O[C@H](CO)[C@@H](O)[C@H]3O)c2n1 (stereo partly specified) and answer again.
OUT: 1500

IN: Also check Nc1nc(NCCc2cccc(O)c2)c2ncn(C3O[C@H](CO)[C@@H](O)[C@H]3O)c2n1 (stereo partly specified)
OUT: 250

IN: Another compound to check: CC(Nc1nc(N)nc2c1ncn2C1O[C@H](CO)[C@@H](O)[C@H]1O)c1ccccc1 (stereo partly specified)
OUT: 2900

IN: Request: "CCCCCNc1ncnc2c1ncn2[C@@H]1O[C@H](CO)[C@@H](O)[C@H]1O"
OUT: 3000

IN: Similarly, CCNc1nc(N)nc2c1ncn2C1O[C@H](CO)[C@@H](O)[C@H]1O (stereo partly specified) ?
OUT: 3500

IN: Now consider COc1ccc(CNc2nc(N)c3ncn(C4O[C@H](CO)[C@@H](O)[C@H]4O)c3n2)cc1 (stereo partly specified) and answer again.
OUT: 1000

IN: Now consider CCCCNc1nc(N)nc2c1ncn2C1O[C@H](CO)[C@@H](O)[C@H]1O (stereo partly specified) .
OUT: 900

IN: Next: Nc1ccc(CCNc2nc(N)nc3c2ncn3C2O[C@H](CO)[C@@H](O)[C@H]2O)cc1 (stereo partly specified)
OUT: 250

IN: // query: Cc1ccc(CCNc2nc(N)nc3c2ncn3C2O[C@H](CO)[C@@H](O)[C@H]2O)cc1 (stereo partly specified)
OUT: 2000

IN: Also need Nc1nc(NCCNc2nc(N)nc3c2ncn3C2O[C@H](CO)[C@@H](O)[C@H]2O)c2ncn(C3O[C@@H](CO)[C@H](O)[C@@H]3O)c2n1 (stereo partly specified) , thanks.
OUT: 500

IN: Request: Nc1nc(NCc2ccccc2)c2ncn(C3O[C@H](CO)[C@@H](O)[C@H]3O)c2n1 (stereo partly specified)
OUT: 600

IN: What about Nc1nc(NCC(O)c2ccccc2)nc2c1ncn2[C@@H]1O[C@H](CO)[C@@H](O)[C@H]1O (stereo partly specified) ?
OUT: 1400

IN: Also CCCCCNc1nc(N)nc2c1ncn2C1O[C@H](CO)[C@@H](O)[C@H]1O (stereo partly specified) , if possible.
OUT: 2000

IN: Same for Nc1nc(NCCc2ccccc2)c2ncn(C3O[C@H](CO)[C@@H](O)[C@H]3O)c2n1 (stereo partly specified)
OUT: 200

IN: Would you kindly repeat that for Nc1nc(NCc2ccc(Cl)cc2)nc2c1ncn2C1O[C@H](CO)[C@@H](O)[C@H]1O (stereo partly specified) ?
OUT: 1400

IN: Queued: CCCCNc1nc(N)c2ncn(C3O[C@H](CO)[C@@H](O)[C@H]3O)c2n1 (stereo partly specified)
OUT: 1500

IN: Input COc1cc(CCNc2nc(N)nc3c2ncn3C2O[C@H](CO)[C@@H](O)[C@H]2O)ccc1O (stereo partly specified)
OUT: 1500

IN: # repeat for C=CCNc1nc(N)nc2c1ncn2C1O[C@H](CO)[C@@H](O)[C@H]1O (stereo partly specified)
OUT: 3000

IN: Repeat with COc1ccccc1CNc1nc(N)c2ncn(C3O[C@H](CO)[C@@H](O)[C@H]3O)c2n1 (stereo partly specified)
OUT: 1400

IN: Repeat for the following compound: C#CCNc1nc(N)nc2c1ncn2C1O[C@H](CO)[C@@H](O)[C@H]1O (stereo partly specified)
OUT: 1500

IN: One more compound: Nc1nc(NCc2ccccc2Cl)nc2c1ncn2C1O[C@H](CO)[C@@H](O)[C@H]1O (stereo partly specified)
OUT: 2000

IN: Next entry: CC(CNc1nc(N)c2ncn(C3O[C@H](CO)[C@@H](O)[C@H]3O)c2n1)c1ccccc1 (stereo partly specified)
OUT: 3500

IN: Try this compound too: Nc1nc(NCCc2ccccc2Cl)c2ncn(C3O[C@H](CO)[C@@H](O)[C@H]3O)c2n1 (stereo partly specified)
OUT: 1900

IN: Consider next the compound Nc1nc(NCCc2ccccc2Cl)nc2c1ncn2C1O[C@H](CO)[C@@H](O)[C@H]1O (stereo partly specified) in the same way.
OUT: 2200

IN: Ok, now OC[C@H]1OC(n2cnc3c(NCCc4ccc(O)cc4)nc(NCCc4ccccc4)nc32)[C@H](O)[C@@H]1O (stereo partly specified)
OUT: 100

IN: Same lookup for "CCCNc1nc(N)c2ncn([C@@H]3O[C@H](CO)[C@@H](O)[C@H]3O)c2n1" , please.
OUT: 1500

IN: What would you report for Nc1nc(NC2CCCCCC2)nc2c1ncn2C1O[C@H](CO)[C@@H](O)[C@H]1O (stereo partly specified) ?
OUT: 3000

IN: Can you check NCCNc1ncnc2c1ncn2C1O[C@H](CO)[C@@H](O)[C@H]1O (stereo partly specified) next?
OUT: 2500

Where do the numbers come from? From ChEMBL document CHEMBL1133593.
